# method: Pharmacokinetic study of ginsenosides in healthy humans after repeated oral RGE with or without LAB
# Assay type: in vivo, human
# assay context: male; RGE + LAB group; human plasma, RGE plus LAB (1 billion CFU/2 g) once daily oral 14 days; AUC 0 to 24 h; mean ± SD, n = 5; read-out: AUC
observation type: AUC (ng·h/mL)
Express your answer in ng·h/mL, writing the number without its unit.

Lab book: AUC of CC(C)=CCC[C@](C)(O[C@@H]1O[C@H](CO[C@@H]2O[C@H](CO)[C@@H](O)[C@H](O)[C@H]2O)[C@@H](O)[C@H](O)[C@H]1O)[C@H]1CC[C@]2(C)[C@@H]1[C@H](O)C[C@@H]1[C@@]3(C)CC[C@H](O[C@@H]4O[C@H](CO)[C@@H](O)[C@H](O)[C@H]4O[C@@H]4O[C@H](CO)[C@@H](O)[C@H](O)[C@H]4O)C(C)(C)[C@@H]3CC[C@]12C [GRb1, ginsenoside Rb1] noted as 164

###

# method: Pharmacokinetic study of ginsenosides in healthy humans after repeated oral RGE with or without LAB
# Assay type: in vivo, human
# assay context: male, human, in vivo, po, 104.1 mg
observation type: AUC (µg·h/mL)
Express your answer in µg·h/mL, writing the number without its unit.

Reference set (2 entries):
>>> test_value("CC(C)=CCCC(C)(O)C1CCC2(C)C1C(O)CC1C3(C)CCC(O)C(C)(C)C3CCC12C (stereo not drawn) [PPD, 20(s)-protopanaxadiol]")
0.13
>>> test_value("CC(C)=CCCC(C)(OC1OC(CO)C(O)C(O)C1O)C1CCC2(C)C1C(O)CC1C3(C)CCC(O)C(C)(C)C3CCC12C (stereo not drawn)")
0.0579

Lab book: AUC of CC(C)=CCCC(C)(O)C1CCC2(C)C1C(O)CC1C3(C)CCC(O)C(C)(C)C3C(O)CC12C (stereo not drawn) [PPT, 20(s)-protopanaxatriol] noted as 0.0599

###

# system tested: P-gp (Homo sapiens, UniProt P08183)
# Construct: host or cells: LLC-PK1-P-gp cells (passage no. 25–28)
# Sequence (P08183 whole entry): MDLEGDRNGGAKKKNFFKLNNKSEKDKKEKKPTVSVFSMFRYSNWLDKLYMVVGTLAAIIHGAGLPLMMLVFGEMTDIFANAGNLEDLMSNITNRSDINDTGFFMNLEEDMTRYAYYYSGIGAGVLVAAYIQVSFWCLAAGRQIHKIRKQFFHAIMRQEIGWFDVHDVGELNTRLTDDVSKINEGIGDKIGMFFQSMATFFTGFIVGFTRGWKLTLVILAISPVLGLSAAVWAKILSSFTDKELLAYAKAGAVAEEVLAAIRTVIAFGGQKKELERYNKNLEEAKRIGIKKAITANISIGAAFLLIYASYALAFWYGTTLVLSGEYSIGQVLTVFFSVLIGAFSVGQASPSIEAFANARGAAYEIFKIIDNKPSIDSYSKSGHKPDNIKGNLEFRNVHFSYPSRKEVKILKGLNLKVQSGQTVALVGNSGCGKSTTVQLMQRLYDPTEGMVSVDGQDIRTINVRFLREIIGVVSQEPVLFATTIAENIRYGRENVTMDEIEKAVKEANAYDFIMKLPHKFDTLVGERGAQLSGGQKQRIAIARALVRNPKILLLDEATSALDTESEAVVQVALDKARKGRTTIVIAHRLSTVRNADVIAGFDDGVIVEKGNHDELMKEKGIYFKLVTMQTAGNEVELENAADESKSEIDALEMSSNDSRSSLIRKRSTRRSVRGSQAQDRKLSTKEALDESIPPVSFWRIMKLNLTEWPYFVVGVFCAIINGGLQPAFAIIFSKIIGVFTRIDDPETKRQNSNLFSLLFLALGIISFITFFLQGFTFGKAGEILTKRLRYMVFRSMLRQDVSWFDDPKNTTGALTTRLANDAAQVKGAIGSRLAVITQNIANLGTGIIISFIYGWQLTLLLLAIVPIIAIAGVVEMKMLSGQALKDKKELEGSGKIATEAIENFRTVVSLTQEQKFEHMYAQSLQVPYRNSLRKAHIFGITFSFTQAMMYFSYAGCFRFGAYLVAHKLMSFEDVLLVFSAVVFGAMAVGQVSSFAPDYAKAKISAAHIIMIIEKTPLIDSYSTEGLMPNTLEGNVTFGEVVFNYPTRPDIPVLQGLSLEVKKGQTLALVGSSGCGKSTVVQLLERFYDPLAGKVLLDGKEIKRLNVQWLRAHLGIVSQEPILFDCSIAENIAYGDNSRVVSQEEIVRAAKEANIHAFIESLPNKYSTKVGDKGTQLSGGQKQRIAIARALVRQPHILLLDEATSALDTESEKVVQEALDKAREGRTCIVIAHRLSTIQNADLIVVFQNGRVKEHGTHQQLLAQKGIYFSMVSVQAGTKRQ
# method: Transport of ginsenosides in P-gp-overexpressing LLC-PK1-P-gp cells
# Type: in vitro ADME
# assay context: pig; LLC-PK1-P-gp cells, 20 μM; mean ± SD, n = 3; read-out: A to B permeability
observation type: Papp A→B at 20 μM (×10⁻⁶ cm/s)
Express your answer in ×10⁻⁶ cm/s, writing the number without its unit.

Reference set (3 entries):
>>> test_value("CC(C)=CCCC(C)(O)C1CCC2(C)C1C(O)CC1C3(C)CCC(O)C(C)(C)C3C(OC3OC(CO)C(O)C(O)C3O)CC12C (stereo not shown)")
0.21
>>> test_value("CC(C)=CCCC(C)(O)C1CCC2(C)C1C(O)CC1C3(C)CCC(O)C(C)(C)C3CCC12C (stereo not shown) [PPD, 20(s)-protopanaxadiol]")
0.13
>>> test_value("CC(C)=CCC[C@](C)(O)[C@H]1CC[C@]2(C)[C@@H]1[C@H](O)C[C@@H]1[C@@]3(C)CC[C@H](O[C@@H]4O[C@H](CO)[C@@H](O)[C@H](O)[C@H]4O)C(C)(C)[C@@H]3CC[C@]12C [GRh2, ginsenoside Rh2]")
0.08

Now consider the entry below.
Lab book: Papp A→B at 20 μM of CC(C)=CCCC(C)(OC1OC(CO)C(O)C(O)C1O)C1CCC2(C)C1C(O)CC1C3(C)CCC(O)C(C)(C)C3C(OC3OC(CO)C(O)C(O)C3O)CC12C (stereo not shown) noted as 0.1
